# credit: patent US10618903B2

Test system: IL-6 levels in human whole blood stimulated with a TLR2 agonist
Assay: IRAK4 Whole Blood Assay (lipoteichoic acid/TLR2-stimulated IL-6)
Format: cell-based
Conditions: Homo sapiens, lipoteichoic acid 10 μg/mL, IL-6 readout
pEC50: −log10 of the molar value.
Param threshold (6) applies to pEC50; output class 1 when value >= threshold, class 0 when value < threshold.

For orientation, consider the following solved cases.
>>> qualitative_label("CC(C)(O)[C@H](F)CNC(=O)c1cnc(-c2cnn3cc(Cl)cnc23)cc1NC1CCN(S(C)(=O)=O)CC1")
"class 1"
>>> qualitative_label("CC(C)(O)[C@H](F)CNC(=O)c1cnc(-c2cnn3cc(Cl)cnc23)cc1NC1CC(F)(F)C1")
"class 0"
>>> qualitative_label("CC(C)(C)CCNC(=O)c1cnc(-c2cnc3cc(Cl)cnn23)cc1NC1COC1")
"class 1"

[ask] Does the compound CO[C@H]1CC[C@H](Nc2cc(-c3cnn4cc(Cl)cnc34)ncc2C(=O)NC[C@@H](F)C(C)(C)O)CC1 have recorded pEC50 that is 6 or more?
[reply] class 1

[ask] Does the compound Cc1cnn2c(-c3cc(NC4CC4)c(C(=O)NC[C@@H](F)C(C)(C)O)cn3)cnc2c1 have recorded pEC50 that is 6 or more?
[reply] class 1

[ask] Does the compound CC(C)(O)[C@H](F)CNC(=O)c1cnc(-c2cnc3cc(C#N)cnn23)cc1NC1COC1 have recorded pEC50 that is 6 or more?
[reply] class 1

---

A collection of compounds and their measured Papp at 2 h, 3 µM
Assay: Caco Permeability Assay
Type: in vitro ADME
Details: human, Caco-2, Caco-2 cells, 3 μM compound
Kindly answer with a numeric value in ×10⁻⁶ cm/s, unit omitted.

Recorded Papp at 2 h, 3 µM, per entry:
>>> result_value("CC(C)Nc1cc(-c2cnn3cc(F)cnc23)ncc1C(=O)NC[C@@H](F)C(C)(C)O [Example 130]")
22.1
>>> result_value("CC(C)(O)[C@H](F)CNC(=O)c1cnc(-c2cnn3cc(Cl)cnc23)cc1NC1CC(F)(F)C1 [Example 65]")
12.6

Now for another entry.
GET /value?item= CC(C)(O)[C@H](F)CNC(=O)c1cnc(-c2cnn3cc(Cl)cnc23)cc1NCCC(F)(F)F [Example 161] &field=Papp at 2 h, 3 µM returns 15.3

---

A collection of compounds and their measured Papp at 2 h, 3 µM
Assay: Caco Permeability Assay
Type: in vitro ADME
Conditions: human, Caco-2, Caco-2 cells, 3 μM compound
Procedure: Thirteen to 27 days prior to assay, Caco-2 cells were seeded onto collagen-coated polycarbonate filter membranes in 24-well transwell plates at a density of 1.45×10^5 cells/cm^2, approximately 4.8×10^4 cells per well. […] The cells were evaluated for tight junction formation just prior to assay. […] The samples were subsequently analyzed by LC-MS/MS to determine concentrations of compound.
Kindly answer with a numeric value in ×10⁻⁶ cm/s, unit omitted.

>>> result_value("CC(C)(O)[C@H](F)CNC(=O)c1cnc(-c2cnn3cc(Cl)cnc23)cc1NCC(F)F")
19.1

GET /value?item= Cc1cnn2c(-c3cc(NC4CC4)c(C(=O)NC[C@@H](F)C(C)(C)O)cn3)cnc2c1 &field=Papp at 2 h, 3 µM returns 3.4

GET /value?item= CC(C)Nc1cc(-c2cnn3cc(Cl)cnc23)ncc1C(=O)NCC(F)C1(O)COC1 (stereo not drawn) &field=Papp at 2 h, 3 µM returns 4.8

GET /value?item= CC(C)OC1CC(Nc2cc(-c3cnn4cc(Cl)cnc34)ncc2C(=O)NC[C@@H](F)C(C)(C)O)CC1(F)F (single isomer, unassigned) &field=Papp at 2 h, 3 µM returns 6.5

GET /value?item= CC(C)(O)[C@H](F)CNC(=O)c1cnc(-c2cnn3cc(Cl)cnc23)cc1Nc1cnn(C(F)F)c1 &field=Papp at 2 h, 3 µM returns 12.6

GET /value?item= CC(F)(F)Cn1cc(Nc2cc(-c3cnn4cc(Cl)cnc34)ncc2C(=O)NC[C@@H](F)C(C)(C)O)cn1 &field=Papp at 2 h, 3 µM returns 14.4
